settings: pH 6.5
experimental.readout: logD
Give the figure by itself; no unit, no explanation.

// logD lookup, compound = `COC[C@H](C)NC(=O)CCl` , result: 0.61

// logD lookup, compound = `O=C([C@H]1CCCO1)N1CCN(C(=S)Nc2ccc(Oc3ccccc3)cc2)CC1` , result: 4.18

// logD lookup, compound = `O=C(CCCNC1=NS(=O)(=O)c2ccccc21)OCc1cc([N+](=O)[O-])cc2c1OCOC2` , result: 3.52

// logD lookup, compound = `Cc1ccc(NC(=O)COC(=O)/C(=C/c2cccs2)c2cccs2)c(C)c1` , result: 3.83

// logD lookup, compound = `O=C(CN1N=N[C@@H]2C(=O)N(c3ccc(Cl)cc3Cl)C(=O)[C@@H]21)Nc1ccccc1` , result: 4.3

// logD lookup, compound = `COC(=O)c1ccc(C(=O)OC)c(NC(=O)CSc2ncnc3sc4c(c23)CC[C@@H](C)C4)c1` , result: 5.79

// logD lookup, compound = `NC(=O)C(C(=O)/C=C/c1ccc(Cl)cc1)=C1SCS1` , result: 3.64

// logD lookup, compound = `COC(=O)c1cc(N2C(=O)[C@H]3[C@@H](C2=O)[C@]2(C(OC(C)=O)OC(C)=O)C=C[C@H]3O2)ccc1Cl` , result: 3.77

// logD lookup, compound = `O=C(CCCCCN1C(=O)/C(=C\c2cccs2)SC1=S)N1CCOCC1` , result: 4.92

// logD lookup, compound = `CC/C(=N\N=C1/S[C@@H](C)C(=O)N1Cc1ccco1)c1ccccc1` , result: 5.07

// logD lookup, compound = `CN(c1ccccc1)S(=O)(=O)c1ccc(C(=O)/N=c2/sc3cc([N+](=O)[O-])ccc3n2C)cc1` , result: 5.84

// logD lookup, compound = `CCOC(=O)c1[nH]c(C)c(C(=O)OCC(=O)N2CCc3ccccc32)c1C` , result: 4.47

// logD lookup, compound = `COc1ccccc1N(CCOC(=O)[C@@H]1CC(=O)N(c2ccccc2)C1)C1=NS(=O)(=O)c2ccccc21` , result: 2.5

// logD lookup, compound = `Cc1ccc2[nH]c3nc(N/N=C/C=C/c4ccco4)nnc3c2c1` , result: 2.18

// logD lookup, compound = `C[C@H]1CCCC[C@@H]1NC(=O)COc1ncnc2ccccc12` , result: 3.11

// logD lookup, compound = `CC[C@@H]1CCCCN1C(=O)COc1cccc2c1CCN(Cc1ccc(Cl)cc1)C2=O` , result: 5.23

// logD lookup, compound = `N#CC1(C#N)[C@H](c2ccc(Br)s2)[C@@H](C(=O)c2ccccc2)N2c3ccccc3C=C[C@@H]21` , result: 5.05

// logD lookup, compound = `O=C(CN1C(=O)/C(=C2\SC(=S)N(Cc3ccco3)C2=O)c2ccccc21)Nc1ccc(F)cc1` , result: 6.36

// logD lookup, compound = `C[C@@H](CCc1ccccc1)NC(=O)C(=O)NC[C@@H]1COc2ccccc2O1` , result: 4.8
